System: mismatch 2 duplex (27-mer, CC mismatch at 14 bp) (DNA, mismatch bulge abasic) GACCAGCTTATCACCCCTAGATACCAT/ATGGTATCTAGGGCTGATAAGCTGGTC
TEST_PROTOCOL: FRET titration (MLCT donor to Cy5.5-labeled DNA), dose-response fit
CONDITION_LABEL: 200 mM NaCl; 5 mM Tris, pH 7.5; 1 μM DNA
MEASUREMENT_KIND: Kd (µM)

Entry "[Ru+2].c1ccc(-c2ccccn2)nc1.c1ccc(-c2ccccn2)nc1.c1ccc2nc3c4cccnc4c4ncccc4c3nc2c1" , Kd reported as 5.3

a: Cc1ccc(-c2ccc(C)cn2)nc1.Cc1ccc(-c2ccc(C)cn2)nc1.[Ru+2].c1ccc2nc3c4cccnc4c4ncccc4c3nc2c1
b: Cc1ccc(-c2ccc(C)cn2)nc1.[Ru+2].c1ccc2nc3c4cccnc4c4ncccc4c3nc2c1.c1ccc2nc3c4cccnc4c4ncccc4c3nc2c1
Asked: // compare measured Kd, left a , right b , return larger Reply briefly: the label of your chosen item.
Given back: b

Origin of values: paper PMC9853847
